meta.source: paper PMC11641860

- Tested on: HepG2 cells
- EXPERIMENTAL_DETAILS: cells
- Format: cell-based
- CONDITION_INFO: Homo sapiens; HepG2, treated for 24 h, mean (SE); read-out: calculated IC50
pIC50: −log10 of the molar value.

COMPOUND: CCCCCCCCCc1ccc(O)cc1 [4-NP, 4-nonylphenol]
pIC50: 4.08

###

- Tested on: MRC5 cells
- EXPERIMENTAL_DETAILS: cells
- Type: cell-based
- CONDITION_INFO: Homo sapiens; MRC5, treated for 24 h, mean (SE); read-out: calculated IC50
QUANTITY_MEASURED: IC50 (µM)

MOL_SMILES: CCCCCCCCCc1ccc(O)cc1
TEST_RESULT: 75.8
